Study target: Cytochrome P450 2C19 (Homo sapiens)
Protocol notes: Cytochrome P450 Family 2 Subfamily C Member 19 (CYP2C19) small molecule antagonists: luciferase reporter qHTS assay (AID 1671197); also: nearly all actives have a fitted effect of over 65% in size
Experimental context: P450-Glo CYP2C19 enzyme, luciferin luminescence, 1 h; series mostly up to 115 µM
Records with an inconclusive call do not appear. Activity calls are given as the source filed them. Calls follow the shape of the dose curve; as a rule, active = well fitted inhibition curve with a large enough effect in the repeat runs; inconclusive = weak or mixed curves; inactive = no such curve, though single readings can be large or run the other way.
Write down the outcome that applies. Available outcomes: active, inactive

// known answers, use as guide
Smiles string | Classification
CC(=O)OCCC(C)C | active
CC(C)=CCC/C(C)=C/C=O | inactive
OB(O)O | inactive
CC1(C)[C@@H](O[C@H]2O[C@H](C(=O)O)[C@@H](O)[C@H](O)[C@H]2O[C@@H]2O[C@H](C(=O)O)[C@@H](O)[C@H](O)[C@H]2O)CC[C@]2(C)[C@H]3C(=O)C=C4[C@@H]5C[C@@](C)(C(=O)O)CC[C@]5(C)CC[C@@]4(C)[C@]3(C)CC[C@@H]12 | inactive
NC(=O)NC(N)=O | inactive
OC1CCCCC1 | inactive

Request: For OCc1ccc(Cl)cc1Cl , which call appears in the assay record?
Response: inactive

Request: For CC1(C)C(=O)N(Cl)C(=O)N1Cl , which call appears in the assay record?
Response: active

Request: For CO[Si](CCCNCCN)(OC)OC , which call appears in the assay record?
Response: inactive

###

Protocol notes: qHTS assay to identify small molecule antagonists of the TGF-beta/Smad signaling pathway - cell viability counter screen (AID 1346824); also: nearly all actives have a fitted effect of over 50% in size
Experimental context: SBE-bla HEK293T viability, CellTiter-Glo luminescence; series mostly up to 76.8 µM
Inconclusive results are not listed. Active and inactive are the calls of the source. Calls follow the shape of the dose curve; as a rule, active = well fitted cell-killing curve with a large enough effect in the repeat runs; inconclusive = weak or mixed curves; inactive = flat fitted curve, though single readings scatter.
Assay metric: outcome

Here are 5 molecules together with their reported answers.
Smiles string | outcome
NC(N)=S | inactive
Nc1cccc(C(F)(F)F)c1 | inactive
O=[N+]([O-])c1ccccc1C(F)(F)F | inactive
C[n+]1ccn(CCO)c1 | inactive
CC(C)(CO)CO | inactive

Now, please, on to the next molecule.
response.value for CC[N+](CC)(CC(=O)Nc1c(C)cccc1C)Cc1ccccc1 (field: outcome) = inactive

###

Protocol notes: qHTS assay to identify small molecule agonists of the estrogen receptor beta (ER-beta) signaling pathway - cell viability counter screen (AID 1259380); also: nearly all actives have a fitted effect of over 30% in size
Experimental context: ER-beta-bla HEK293T viability, CellTiter-Glo luminescence, 16 h; series mostly up to 92.4 µM
Records with an inconclusive call do not appear. Calls of active or inactive are those of the source. Calls follow the shape of the dose curve; as a rule, active = well fitted cell-killing curve with a large enough effect in the repeat runs; inconclusive = weak or mixed curves, or effect the other way; inactive = flat fitted curve, though single readings scatter.
Assay metric: outcome

Here are 10 compounds together with their reported answers.
Compound | Reported measurement
CN=C(NC#N)NCCSCc1nc[nH]c1C | inactive
CCCCCC(C)=O | inactive
C=C(CC(=O)O)C(=O)O | inactive
CCN(CC)CCNC(=O)c1ccc(N)cc1 | inactive
COc1ccccc1[N+](=O)[O-] | inactive
CN1Cc2c(N)cccc2C(c2ccccc2)C1 (stereo unspecified) | inactive
CS(=O)(=O)c1ccc(Cl)cc1 | inactive
CC/C(C)=N/O | inactive
O=C(NCC1CCCCN1)c1cc(OCC(F)(F)F)ccc1OCC(F)(F)F (stereo unspecified) | inactive
CCCCC(=O)O | inactive

Now, please, on to the next compound.
response.value for COc1c2ccoc2cc2oc(=O)ccc12 (field: outcome) = inactive

###

Protocol notes: qHTS assay to test for compound auto fluorescence at 460 nm (blue) in HepG2 cells (AID 720687)
Experimental context: autofluorescence 405/460 nm, 1 h; series mostly up to 91.3 µM
Activity calls are given as the source filed them. The call rests on the fitted dose curve; in most records, active means well fitted curve in the direction sought with a large enough effect in the repeat runs; inconclusive means weak or mixed curves; inactive means flat fitted curve, though single readings scatter.
Assay metric: outcome

Compound | Reported measurement
CCOC(=O)c1ccc(O)cc1 | inactive
Cc1ncc(CO)c(CO)c1O | inactive
CC(=O)c1nccs1 | inactive
O=C1C(N(CO)C(=O)NCO)N(CO)C(=O)N1CO (stereo not given) | inactive
CCOC(=O)CC(=O)OCC | inactive
CS(=O)(=O)c1ccc(Cl)cc1 | inactive
CC(C)c1ccc(C(C)C)cc1 | inactive
CN1Cc2c(N)cccc2C(c2ccccc2)C1 (stereo not given) | inactive
CCc1cccc(CC)c1N | inactive
COc1ccc2cc3[n+](cc2c1OC)CCc1cc2c(cc1-3)OCO2 | inactive

response.value for O=c1c(O)c(-c2ccc(O)c(O)c2)oc2cc(O)cc(O)c12 (field: outcome) = inactive

response.value for CC(=O)OC[C@H]1O[C@@](COC(C)=O)(O[C@H]2O[C@H](COC(C)=O)[C@@H](OC(C)=O)[C@H](OC(C)=O)[C@H]2OC(C)=O)[C@@H](OC(C)=O)[C@@H]1OC(C)=O (field: outcome) = inactive

response.value for CCCCCCCCO (field: outcome) = inactive

response.value for CCCCC(=O)O (field: outcome) = inactive

response.value for C1CCCNCC1 (field: outcome) = inactive
